# Tested on: HepG2-TP53BP1-CLTA
# METHOD: phenotypically active (imaging signature differs from DMSO and reproducible) at any of 0.3-9 uM (binary (1 = active, 0 = inactive)); higher = active
# MEASUREMENT_CONDITIONS: treatment time: 24 h
Structures can show the parent of a compound that is named as a salt.
Answer with one of the outcomes active, inactive

q: Recorded test outcome, item O=C1CCC[C@@H]2[C@H]3CCCN4CCC[C@@H](CN12)[C@@H]34 [Matrine]
a: inactive

q: Note, next up: C[N+]12CCC(CC1)C(OC(=O)C(O)(c1ccccc1)c1ccccc1)C2 (centres undefined) [clidinium]
a: inactive

q: Repeat with Cc1sc2c(c1C)C(c1ccc(Cl)cc1)=N[C@H](CC(=O)OC(C)(C)C)c1nnc(C)n1-2
a: inactive

q: Same lookup for COc1ccc(N(C(=O)Oc2c(C)cccc2C)c2ccnc(Nc3ccc(N4CCN(C)CC4)cc3)n2)c(OC)c1 , please.
a: active

q: Input CC[C@]12C=CCN3CC[C@]4(C(=C(C(=O)OC)C1)Nc1ccccc14)[C@@H]32 [Tabersonine dichlorhydrate]
a: active

q: Try this compound too: N#CC(C#N)=NNc1ccc(OC(F)(F)F)cc1
a: active

q: Query C=C[C@]12CN(C)[C@@H]3[C@H]4CO[C@H](C[C@H]41)[C@]1(C(=O)Nc4ccccc41)[C@@H]32 [Gelsemine] next
a: inactive

q: Please do the same for CNC(=O)Oc1ccc2c(c1)[C@]1(C)CCN(C)O[C@@H]1N2C [Geneserine] as well.
a: inactive

q: Same for NCC1(CC(=O)O)CCCCC1 [gabapentin]
a: inactive

q: Follow-up entry: O=C1CN=C(c2ccccc2)c2cc(Cl)ccc2N1CC(F)(F)F [halazepam]
a: inactive

q: // next record CC[C@H]1C[N@@]2CC[C@H]1C[C@H]2[C@@H](O)c1ccnc2ccc(O)cc12 [Hydrocupreine]
a: inactive

q: Also check NC(=S)N/N=C/c1coc2ccccc2c1=O
a: inactive

q: Would you mind doing OCC[N+]12CN3CN(CN(C3)C1)C2 as well?
a: inactive

q: And what about the compound c1ccc([C@@H]2C[C@H]2NC2CCNCC2)cc1 [GSK LSD 1 dihydrochloride] ?
a: inactive

q: Same question for COc1ccc(OC)c(C(O)C(C)N)c1 (centres undefined) [methoxamine] please.
a: inactive

q: Now this one: CC(C)c1cccc(C(C)C)c1O [propofol]
a: inactive

q: Do the same for C[C@@]12C(=O)OC(=O)[C@]1(C)[C@H]1CC[C@@H]2O1 [Cantharidin] please
a: active

q: Now consider C[C@]12COC(=O)C[C@@H]1CC[C@@H]1[C@@H]2CC[C@@]2(C)[C@H]1CC[C@]2(C)O [oxandrolone] and answer again.
a: inactive

q: What about this compound? O[C@H]1[C@H](O)[C@@H](O)CN2CC[C@H](O)[C@H]12 [Castanospermine]
a: inactive
